Please go through the items and note down their GI50.
System: Calu-3 (Her2 amp)
measurement_description: Growth inhibition GI50 in vitro (CCK8/MTT, 72 h)
Assay type: cell-based
protocol_conditions: Homo sapiens, Calu-3; Table 16; 1000 nM to 0.03 nM serial dilution; read-out: GI50 Calu3 (HER2 amp)
// return the numeric value with its unit appended

INSERT INTO results (molecule, measured_on, recorded_measurement) VALUES
  ('C=CC(=O)Nc1cc(Nc2cc(Nc3cc(OC)c(Cl)cc3Cl)ncn2)c(OC)cc1N(C)CCN(C)C', 'Calu-3 (Her2 amp)', '14.7 nM'),
  ('CN(C)C/C=C/C(=O)Nc1cc2c(Nc3ccc(F)c(Cl)c3)ncnc2cc1O[C@H]1CCOC1 [Afatinib, reference compound]', 'Calu-3 (Her2 amp)', '2.62 nM'),
  ('C=CC(=O)Nc1cc(Nc2nccc(-c3cn(C)c4ccccc34)n2)c(OC)cc1N(C)CCN(C)C [AZD9291, reference compound]', 'Calu-3 (Her2 amp)', '657 nM');

Note: attention shifts to another entry.
Prompt: Form field: reported GI50 of C=CC(=O)Nc1cc(Nc2cc(Nc3cc(C(F)(F)F)ccc3OC)ncn2)c(OC)cc1N(C)CCN(C)C
Response: 0.98 nM

---

Please go through the items and note down their GI50.
Test system: AU565 (Her2 amp)
measurement_description: Growth inhibition GI50 in vitro (CCK8/MTT, 72 h)
Format: cell-based, human
protocol_conditions: Homo sapiens, AU565; HER2 positive cell line; range of GI50; read-out: GI50 AU-565

Before answering, review these 5 worked examples.
INSERT INTO measurements (compound, readout_kind, recorded_measurement) VALUES
  ('C=CC(=O)Nc1cc(Nc2cc(Nc3ccc(F)c(Cl)c3)ncn2)c(OC)cc1N(C)CCN(C)C [Compound 140]', 'GI50', '< 10 nM'),
  ('C=CC(=O)Nc1cc(Nc2nccc(Nc3cccc(Cl)c3F)n2)c(OC)cc1N(C)CCN(C)C [Compound 14]', 'GI50', '100 to 1000 nM'),
  ('C=CC(=O)Nc1cc(Nc2cc(-c3cn(C)c4ccc(F)cc34)ncn2)c(OC)cc1N(C)CCN(C)C [Compound 188]', 'GI50', '10 to 100 nM'),
  ('C=CC(=O)Nc1cc(Nc2cc(Nc3ccc(F)c(Cl)c3)ncn2)c(OC)cc1OCCN(C)C [Compound 148]', 'GI50', '< 10 nM'),
  ('C#Cc1cccc(Nc2cc(Nc3cc(NC(=O)C=C)c(N(C)CCN(C)C)cc3OC)ncn2)c1 [Compound 135]', 'GI50', '< 10 nM');

Okay, here is my list. What is GI50 for each of these?
1. C=CC(=O)Nc1cc(Nc2ncnc(Nc3cccc(Cl)c3)n2)c(OC)cc1N(C)CCN(C)C [Compound 108]
2. C=CC(=O)Nc1cc(Nc2nccc(Nc3cccc(Cl)c3)n2)c(OC)cc1N(C)CCN(C)C [Compound 2]
3. C=CC(=O)Nc1cc(Nc2nccc(-n3ccc4cc(OC)ccc43)n2)c(OC)cc1N(C)CCN(C)C [Compound 78]

Response:
1. 10 to 100 nM
2. 10 to 100 nM
3. 10 to 100 nM

---

Test system: PC-9 (EGFR dE746-A750)
measurement_description: Growth inhibition GI50 in vitro (CCK8/MTT, 72 h)
Assay type: cell-based, human
protocol_conditions: Homo sapiens; Table 13, 72 h; read-out: Range of GI50 PC-9 (EGFR dE746-A750)
readout_kind: GI50

Please review the following examples before continuing.
INSERT INTO assay_data (structure_notation, readout_kind, recorded_measurement) VALUES
  ('C=CC(=O)Nc1cc(Nc2cc(Nc3cc(OC)c(Cl)cc3Cl)ncn2)c(OC)cc1OCCN1CCCCC1', 'GI50', '10 to 100 nM'),
  ('C=CC(=O)Nc1cc(Nc2cc(Nc3ccc(OC)c(C(F)(F)F)c3)ncn2)c(OC)cc1N(C)CCN(C)C', 'GI50', '< 10 nM'),
  ('C=CC(=O)Nc1cc(Nc2cc(Nc3cc(C(F)(F)F)ccc3F)ncn2)c(OC)cc1N(C)CCN(C)C', 'GI50', '< 10 nM'),
  ('C=CC(=O)Nc1cc(Nc2cc(Nc3ccc(OC)c(Cl)c3)ncn2)c(OC)cc1N1CCN(C2CCN(C)CC2)CC1', 'GI50', '< 10 nM'),
  ('C=CC(=O)Nc1cc(Nc2cc(Nc3ccc(F)c(C(F)(F)F)c3)ncn2)c(OC)cc1N(C)CCN(C)C', 'GI50', '< 10 nM');

Consider the following items and state reported GI50 for each.
1. C=CC(=O)Nc1cc(Nc2cc(Nc3ccc(OC)c(Cl)c3)ncn2)c(OC)cc1N(C)CCN1CCCC1
2. C=CC(=O)Nc1cc(Nc2cc(Nc3cc(OC)c(Cl)cc3Cl)ncn2)c(OC)cc1OCCN(C)C

Response:
10 to 100 nM
< 10 nM

Parameters: items (list). Returns: GI50 for each item.
1. C=CC(=O)Nc1cc(Nc2cc(Nc3ccc(OC)c(C#N)c3)ncn2)c(OC)cc1N(C)CCN(C)C
2. C#Cc1cc(Nc2cc(Nc3cc(NC(=O)C=C)c(N(C)CCN(C)C)cc3OC)ncn2)ccc1OC
3. C=CC(=O)Nc1cc(Nc2cc(Nc3cc(OC)c(Cl)cc3Cl)ncn2)c(OC)cc1N1CCC(N2CCOCC2)CC1
4. C=CC(=O)Nc1cc(Nc2nccc(-n3ccc4c(OC)cc(Cl)cc43)n2)c(OC)cc1N(C)CCN(C)C

Response:
1: 10 to 100 nM; 2: < 10 nM; 3: < 10 nM; 4: < 10 nM

Would you mind listing GI50 for each of the following molecules?
1. C=CC(=O)Nc1cc(Nc2cc(Nc3cc(F)c(OCCOC)c(Cl)c3)ncn2)c(OC)cc1N(C)CCN(C)C
2. C=CC(=O)Nc1cc(Nc2cc(Nc3ccc(C(F)(F)F)c(Cl)c3)ncn2)c(OC)cc1N(C)CCN(C)C
3. C=CC(=O)Nc1cc(Nc2cc(Nc3ccc(OCCC(C)C)c(Cl)c3)ncn2)c(OC)cc1N(C)CCN(C)C
4. C=CC(=O)Nc1cc(Nc2cc(Nc3ccc(OC)c(Cl)c3)ncn2)c(OC)cc1OCCN(C)C

Response:
1. 10 to 100 nM
2. 10 to 100 nM
3. < 10 nM
4. < 10 nM
